- System under test: Metabotropic glutamate receptor 1 (Homo sapiens)
- Sequence (Q13255 whole entry): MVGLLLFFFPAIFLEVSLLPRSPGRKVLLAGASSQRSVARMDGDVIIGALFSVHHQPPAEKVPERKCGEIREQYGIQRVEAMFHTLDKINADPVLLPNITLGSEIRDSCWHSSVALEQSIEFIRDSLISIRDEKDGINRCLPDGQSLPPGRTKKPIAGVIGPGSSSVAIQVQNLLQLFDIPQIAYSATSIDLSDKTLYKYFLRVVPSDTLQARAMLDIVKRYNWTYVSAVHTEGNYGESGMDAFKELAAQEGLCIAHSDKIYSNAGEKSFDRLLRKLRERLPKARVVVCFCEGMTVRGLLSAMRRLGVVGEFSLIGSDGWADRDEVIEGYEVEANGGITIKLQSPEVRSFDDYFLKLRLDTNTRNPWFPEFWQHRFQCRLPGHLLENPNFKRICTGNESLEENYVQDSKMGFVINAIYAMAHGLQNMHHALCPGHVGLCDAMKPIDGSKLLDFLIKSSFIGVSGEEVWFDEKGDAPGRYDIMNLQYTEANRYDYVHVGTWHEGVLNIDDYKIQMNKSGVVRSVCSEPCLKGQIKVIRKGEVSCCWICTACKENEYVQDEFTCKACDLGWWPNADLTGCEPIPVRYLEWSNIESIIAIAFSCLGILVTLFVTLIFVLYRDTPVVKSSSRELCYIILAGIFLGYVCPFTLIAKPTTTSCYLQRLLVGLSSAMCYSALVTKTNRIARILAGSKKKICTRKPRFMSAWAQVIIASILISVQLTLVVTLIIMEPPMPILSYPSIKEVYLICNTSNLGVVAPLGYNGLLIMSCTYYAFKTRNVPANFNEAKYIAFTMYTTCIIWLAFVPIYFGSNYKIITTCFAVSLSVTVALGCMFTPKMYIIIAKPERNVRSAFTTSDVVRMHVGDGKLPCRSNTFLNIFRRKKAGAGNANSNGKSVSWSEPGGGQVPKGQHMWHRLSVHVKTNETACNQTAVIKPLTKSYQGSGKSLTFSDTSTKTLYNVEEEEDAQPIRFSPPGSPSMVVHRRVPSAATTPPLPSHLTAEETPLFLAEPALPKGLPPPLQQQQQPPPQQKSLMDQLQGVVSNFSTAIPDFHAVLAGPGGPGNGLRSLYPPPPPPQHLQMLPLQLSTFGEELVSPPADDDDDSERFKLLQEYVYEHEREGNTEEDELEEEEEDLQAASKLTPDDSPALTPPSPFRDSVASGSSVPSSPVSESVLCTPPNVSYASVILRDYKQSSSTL
- Procedure text: Allosteric antagonist activity at human recombinant mGluR1 expressed in AV12 cells assessed as intracellular calcium concentration using Fluo-3 dye by FLIPR assay
Property label: IC50 (nM)

Look over these answered cases.
COc1ccc(-c2nsc(NC(=O)[C@@H]3C[C@H]3C)c2C)cc1; 9
COc1ccc(-c2nsc(NC(=O)[C@H]3C[C@@H]3C)c2C)cc1; 110
Cc1c(-c2ccc(Cl)cc2)nsc1NC(=O)[C@@H]1C[C@H]1C; 9
Cc1c(-c2ccc(Cl)c(Cl)c2)nsc1NC(=O)[C@@H]1C[C@H]1C; 39

A. Cc1c(-c2ccc(O)cc2)nsc1NC(=O)[C@@H]1C[C@H]1C
B. COc1ccc(-c2nsc(NC(=O)[C@@H]3C[C@H]3C)c2C)cc1F
Ask: Which value of IC50 is numerically greater: that of A or that of B ? Answer format: the label of the selected item.
Result: A
(A: 138 nM, B: 7 nM)
